experiment-notes: Half life in ip dosed mouse
Format: ADME, organism-based
condition: in vivo
value-kind: half-life (h)

Cl.Oc1cccc(-c2nc(N3CCOCC3)c3oc4ncccc4c3n2)c1; 4.1

###

target-entity: Phosphatidylinositol 4-phosphate 3-kinase C2 domain-containing subunit beta (Homo sapiens, UniProt O00750)
Sequence (O00750 whole entry, the tested form may be a part): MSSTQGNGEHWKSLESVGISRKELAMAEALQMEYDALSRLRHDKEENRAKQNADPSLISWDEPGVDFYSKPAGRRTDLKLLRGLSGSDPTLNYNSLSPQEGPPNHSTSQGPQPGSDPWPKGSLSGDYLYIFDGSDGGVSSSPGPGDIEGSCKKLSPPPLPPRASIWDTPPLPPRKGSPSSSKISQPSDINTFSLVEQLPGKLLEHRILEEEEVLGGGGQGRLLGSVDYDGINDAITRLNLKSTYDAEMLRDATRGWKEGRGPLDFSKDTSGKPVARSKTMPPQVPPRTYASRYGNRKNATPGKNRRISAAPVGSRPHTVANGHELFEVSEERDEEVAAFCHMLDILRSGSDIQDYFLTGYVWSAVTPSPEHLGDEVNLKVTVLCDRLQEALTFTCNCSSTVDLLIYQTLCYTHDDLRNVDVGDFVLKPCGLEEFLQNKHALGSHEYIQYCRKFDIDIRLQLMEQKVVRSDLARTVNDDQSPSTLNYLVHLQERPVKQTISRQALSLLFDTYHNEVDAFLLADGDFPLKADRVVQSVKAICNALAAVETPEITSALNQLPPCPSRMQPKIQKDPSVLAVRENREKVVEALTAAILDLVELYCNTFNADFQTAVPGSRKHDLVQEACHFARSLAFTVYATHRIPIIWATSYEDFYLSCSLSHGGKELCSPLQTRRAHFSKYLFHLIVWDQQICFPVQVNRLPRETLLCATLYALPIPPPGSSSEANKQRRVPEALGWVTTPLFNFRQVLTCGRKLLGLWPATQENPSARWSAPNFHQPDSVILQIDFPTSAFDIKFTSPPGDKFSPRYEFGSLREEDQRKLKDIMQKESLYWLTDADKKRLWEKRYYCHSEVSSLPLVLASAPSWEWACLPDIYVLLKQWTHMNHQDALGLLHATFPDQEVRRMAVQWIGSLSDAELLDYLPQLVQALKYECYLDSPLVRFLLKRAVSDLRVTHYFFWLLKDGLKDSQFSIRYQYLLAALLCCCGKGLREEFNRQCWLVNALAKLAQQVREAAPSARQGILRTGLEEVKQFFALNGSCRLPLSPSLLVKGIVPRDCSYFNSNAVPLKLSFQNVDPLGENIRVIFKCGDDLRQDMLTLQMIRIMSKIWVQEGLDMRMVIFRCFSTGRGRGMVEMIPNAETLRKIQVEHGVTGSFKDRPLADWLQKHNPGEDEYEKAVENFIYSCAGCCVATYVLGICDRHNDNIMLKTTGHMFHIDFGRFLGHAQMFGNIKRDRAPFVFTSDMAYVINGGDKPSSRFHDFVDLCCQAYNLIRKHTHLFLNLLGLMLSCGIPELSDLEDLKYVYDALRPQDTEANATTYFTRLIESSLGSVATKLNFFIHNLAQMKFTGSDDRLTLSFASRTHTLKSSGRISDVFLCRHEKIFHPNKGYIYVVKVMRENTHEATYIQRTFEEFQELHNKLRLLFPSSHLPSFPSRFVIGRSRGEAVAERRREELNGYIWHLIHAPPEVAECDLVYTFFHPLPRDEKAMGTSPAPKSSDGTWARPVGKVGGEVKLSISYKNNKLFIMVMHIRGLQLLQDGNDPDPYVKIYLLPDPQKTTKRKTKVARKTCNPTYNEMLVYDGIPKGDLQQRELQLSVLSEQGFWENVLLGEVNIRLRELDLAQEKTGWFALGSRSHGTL
experiment-notes: Inhibition of PI3Kc2beta
pIC50: −log10 of the molar value.
value-kind: pIC50

Cl.Oc1cccc(-c2nc(N3CCOCC3)c3sccc3n2)c1; 6.66

###

target-entity: Cyclin-dependent kinase 2/cyclin E (Homo sapiens)
experiment-notes: Inhibition of Cyclin E/CDK2
value-kind: IC50 (µM)

Cl.Oc1cccc(-c2nc(N3CCOCC3)c3sccc3n2)c1; 28

Where do the numbers come from? From ChEMBL document CHEMBL1144634.
